Molecular target: Human recombinant melanocortin MCI receptors (Homo sapiens, UniProt Q01726)
Construct: purchased Eurofins Discovery Item 251100; host or cells: CHO-K1
Sequence (Q01726 whole entry): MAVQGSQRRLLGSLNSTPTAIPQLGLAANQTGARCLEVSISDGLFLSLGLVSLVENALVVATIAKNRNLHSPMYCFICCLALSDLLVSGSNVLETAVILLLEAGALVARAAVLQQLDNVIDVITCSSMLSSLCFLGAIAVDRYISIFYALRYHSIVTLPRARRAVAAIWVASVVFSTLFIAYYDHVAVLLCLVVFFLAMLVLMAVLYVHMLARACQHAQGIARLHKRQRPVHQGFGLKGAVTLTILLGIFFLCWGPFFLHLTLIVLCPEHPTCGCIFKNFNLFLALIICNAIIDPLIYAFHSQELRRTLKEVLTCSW
Experiment: MC1 Human Melanocortin GPCR Binding (Agonist Radioligand) competition assay (Eurofins Item 251100)
Details: Example 7, Table 7; binned; screened at five concentrations; read-out: IC50
Experimental: The binding of Group A MCIR peptide antagonists of the disclosure was evaluated in a competition assay (MC1 Human Melanocortin GPCR Binding (Agonist Radioligand) Assay, Item 251100, Eurofins Discovery). […] Receptors were filtered and washed, and the filters counted to determine [^125I] […] Based on the competitive binding curve, the IC50 values were determined (Eurofins or AAT Bioquest IC50 calculator). […]
Square brackets hold non-standard residues; d marks the D form. Peptide text beside a SMILES is read from it.
As shown below, each of these molecules has a reported IC50 value.
experimental_readout: IC50

molecule	experimental_readout	result
CSCC[C@H](N)C(=O)N[C@H](C(=O)N[C@@H](Cc1ccccc1)C(=O)N[C@@H](CCCNC(=N)N)C(=O)N[C@H](Cc1c[nH]c2ccccc12)C(=O)N[C@@H](Cc1ccccc1)C(=O)N[C@@H](CCCCN)C(=O)N1CCC[C@H]1C(=O)N[C@H](C(N)=O)C(C)C)C(C)C [SEQ ID NO: 27, Met-Val-Phe-Arg-dTrp-Phe-Lys-Pro-Val-NH2] (H-MVFR[dW]FKPV-NH2)	IC50	> 500 nM
CC(C)[C@H](NC(=O)[C@@H]1CCCN1C(=O)[C@H](CCCCN)NC(=O)[C@H](Cc1ccccc1)NC(=O)[C@@H](Cc1c[nH]c2ccccc12)NC(=O)[C@H](CCCNC(=N)N)NC(=O)[C@@H](Cc1ccccc1)NC(=O)[C@@H](NC(=O)[C@@H](N)CCC(=O)O)C(C)C)C(N)=O [SEQ ID NO: 25] (H-EV[dF]R[dW]FKPV-NH2)	IC50	> 500 nM
CC(C)[C@H](NC(=O)[C@@H]1CCCN1C(=O)[C@H](CCCCN)NC(=O)[C@H](Cc1ccccc1)NC(=O)[C@@H](Cc1c[nH]c2ccccc12)NC(=O)[C@H](CCCNC(=N)N)NC(=O)[C@@H](Cc1ccccc1)NC(=O)[C@@H](NC(=O)[C@H](C)N)C(C)C)C(N)=O [SEQ ID NO: 11] (H-AV[dF]R[dW]FKPV-NH2)	IC50	200 to 500 nM
CSCC[C@H](N)C(=O)N[C@H](C(=O)N[C@H](Cc1ccccc1)C(=O)N[C@H](CCCNC(=N)N)C(=O)N[C@H](Cc1c[nH]c2ccccc12)C(=O)N[C@@H](Cc1ccccc1)C(=O)N[C@@H](CCCCN)C(=O)N1CCC[C@H]1C(=O)N[C@H](C(N)=O)C(C)C)C(C)C [SEQ ID NO: 35] (H-MV[dF][dR][dW]FKPV-NH2)	IC50	> 500 nM
CC(C)[C@H](NC(=O)[C@@H]1CCCN1C(=O)[C@H](CCCCN)NC(=O)[C@H](Cc1ccccc1)NC(=O)[C@@H](Cc1c[nH]c2ccccc12)NC(=O)[C@H](CCCNC(=N)N)NC(=O)[C@@H](Cc1ccccc1)NC(=O)[C@@H](NC(=O)[C@@H](N)Cc1ccccc1)C(C)C)C(N)=O [SEQ ID NO: 16] (H-FV[dF]R[dW]FKPV-NH2)	IC50	< 200 nM

From: patent US20250026787A1
